system: HCT-116; test: NCI tumour cell line growth inhibition, 48 h
Calls of active or inactive are those of the source. No stated cut-off is given here; in the data, active = GI50 up to about 1.1 µM and inactive = higher.
What GI50 was measured for each of the following?

COMPOUND	PROPERTY LABEL	MEASUREMENT
CC(=O)OC[C@@H]1[C@H]2CC(=O)O[C@H]2C[C@H]1OC(C)=O	GI50	94 µM (inactive)

Quick batch: GI50 for everything below.
1. COC(=O)C(C(=O)C(=O)Nc1ccccc1C)c1nc2ccc([N+](=O)[O-])cc2nc1O (stereo not drawn)
2. COc1ccc2c(=O)c3ccoc3[nH]c2c1
3. Nc1nc(SCCNC(=O)CCc2ccc(O)c(I)c2)nc2c1ncn2C1OC(CO)C(O)C1O (stereo not drawn)
4. CCC(c1ccc2cc(O)ccc2c1)C(C)(C)C(=O)O (stereo not drawn)
5. CC1=NN(c2nc(N)nc(CF)n2)C(C)(C)C1
6. COC1C=COC2(C)Oc3c(C)c(O)c4c(O)c(c(C5SCCS5)c(O)c4c3C2=O)NC(=O)C(C)=C/C=C\C(C)C2OC(C)(C)OC(C2C)C(C)C(OC(C)=O)C1C (stereo not drawn)
7. O=C1C=CC2(C=C1)CCNC1=C2C(=O)c2ccccc2C1=O
8. CCOc1ccc(/C=C2/C(=O)N/C(=N\C(C)=O)N2C)cc1

> 100 µM (inactive)
> 100 µM (inactive)
> 100 µM (inactive)
> 100 µM (inactive)
> 100 µM (inactive)
5.05 µM (inactive)
> 100 µM (inactive)
> 100 µM (inactive)
